# study.target: Mot3 (UniProt P54785)
# Sequence: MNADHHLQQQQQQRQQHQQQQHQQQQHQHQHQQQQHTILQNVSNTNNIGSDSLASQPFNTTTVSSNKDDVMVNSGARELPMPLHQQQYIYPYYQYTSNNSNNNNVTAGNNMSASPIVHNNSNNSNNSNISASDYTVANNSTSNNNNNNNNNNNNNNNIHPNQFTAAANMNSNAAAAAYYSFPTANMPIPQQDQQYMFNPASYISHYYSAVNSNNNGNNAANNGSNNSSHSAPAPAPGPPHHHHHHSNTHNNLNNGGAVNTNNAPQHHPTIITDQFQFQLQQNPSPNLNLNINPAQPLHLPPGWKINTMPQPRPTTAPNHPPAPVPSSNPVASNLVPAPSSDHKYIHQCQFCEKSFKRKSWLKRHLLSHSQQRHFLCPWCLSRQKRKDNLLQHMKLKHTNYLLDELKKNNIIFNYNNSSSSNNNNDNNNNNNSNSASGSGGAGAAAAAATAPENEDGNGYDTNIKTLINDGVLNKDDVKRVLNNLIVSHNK
# test.details: PBM E-score (8-mer binding enrichment) (E-score (-0.5 to 0.5)); higher = stronger / more preferred TF binding
# cond: protein concentration: 200 nM; construct: GST-full length
In all, about 33,000 sequences were measured (“E-score (-0.5 to 0.5)”: median about -0.035, highest 2% from about 0.34 on). Shown is part of a subset that was picked to be rich in the highest values.
Provide the reported PBM E-score of each item.
Give bare numbers.

// worked examples, PBM E-score included
input: Recorded PBM E-score for ATATTGGA , please?
output: 0.0164

input: Same question, CCGTGTGA this time
output: 0.277

input: Also check CTACACTC
output: 0.0954

// each listed sequence needs a value for PBM E-score
1. ACTCGAAT
2. TAGTGTAA
3. CTACACAA

output:
0.00379
0.206
0.29

Please state, for each entry, its recorded PBM E-score.
1. AAGCCTCC
2. ACCTGACA
3. TAAGGTGA
4. ACGTTCTG
5. GTGAAGTA
6. CTGCTGCA

output:
1. -0.243
2. 0.105
3. -0.0657
4. -0.0537
5. 0.0411
6. -0.0263

Batch request: PBM E-score per item, same order as input.
1. TGGTGTAA
2. GTACACGA
3. CCGTGTAA
4. CTACACAC
5. GGCTCTGA
6. ACGTGTGA
7. ATCCTGCG
8. CCCCTAAG

output:
0.186
0.327
0.403
0.333
0.00444
0.184
0.0225
-0.313

Fill in PBM E-score for each of the 2 sequences listed.
1. CCATTGAA
2. GCGTGTCC

output:
[0.0844, 0.0864]

###

Hi there, I'd appreciate the recorded PBM E-score for every entry that follows.
# study.target: Mot3 (UniProt P54785)
# Sequence: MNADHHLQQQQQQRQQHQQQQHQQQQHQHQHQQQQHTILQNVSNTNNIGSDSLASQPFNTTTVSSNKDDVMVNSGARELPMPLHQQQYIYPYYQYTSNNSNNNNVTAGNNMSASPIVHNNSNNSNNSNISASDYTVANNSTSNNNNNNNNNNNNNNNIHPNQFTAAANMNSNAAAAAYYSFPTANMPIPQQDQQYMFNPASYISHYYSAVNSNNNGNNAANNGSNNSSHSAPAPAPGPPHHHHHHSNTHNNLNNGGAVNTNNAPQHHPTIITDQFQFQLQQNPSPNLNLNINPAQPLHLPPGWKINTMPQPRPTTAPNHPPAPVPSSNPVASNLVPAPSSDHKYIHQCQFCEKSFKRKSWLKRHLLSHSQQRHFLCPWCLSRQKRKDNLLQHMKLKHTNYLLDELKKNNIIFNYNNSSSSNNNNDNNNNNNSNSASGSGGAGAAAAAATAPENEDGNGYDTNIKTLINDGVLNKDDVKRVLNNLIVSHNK
# test.details: PBM E-score (8-mer binding enrichment) (E-score (-0.5 to 0.5)); higher = stronger / more preferred TF binding
# cond: protein concentration: 200 nM; construct: GST-full length
In all, about 33,000 sequences were measured (“E-score (-0.5 to 0.5)”: median about -0.035, highest 2% from about 0.34 on). Many of the other results were omitted from the sample, so the highest values are more common in it than they were.
Numbers only.

A selection of reference data follows.
input: Mot3 (UniProt P54785) / PBM E-score / ACACGCGA : value?
output: 0.292

input: For ACACGCGG then?
output: 0.252

input: Here is the next sequence: CCCTGAAA
output: -0.0551

input: Please answer likewise for ACCTTAAA
output: -0.092

input: Field entry: GCCTTAAA
output: 0.349

input: Item: ACACGCTA
output: 0.356

input: How about this sequence: ACACGCTG
output: 0.256

input: Now consider CCCTTAAA .
output: -0.00813

For each entry beneath this line, provide reported PBM E-score.
1. AACTTCCT
2. TAAAGCTA
3. TAGAGAAA

output:
1: 0.15; 2: 0.19; 3: -0.0644

###

# study.target: Mot3 (UniProt P54785)
# Sequence: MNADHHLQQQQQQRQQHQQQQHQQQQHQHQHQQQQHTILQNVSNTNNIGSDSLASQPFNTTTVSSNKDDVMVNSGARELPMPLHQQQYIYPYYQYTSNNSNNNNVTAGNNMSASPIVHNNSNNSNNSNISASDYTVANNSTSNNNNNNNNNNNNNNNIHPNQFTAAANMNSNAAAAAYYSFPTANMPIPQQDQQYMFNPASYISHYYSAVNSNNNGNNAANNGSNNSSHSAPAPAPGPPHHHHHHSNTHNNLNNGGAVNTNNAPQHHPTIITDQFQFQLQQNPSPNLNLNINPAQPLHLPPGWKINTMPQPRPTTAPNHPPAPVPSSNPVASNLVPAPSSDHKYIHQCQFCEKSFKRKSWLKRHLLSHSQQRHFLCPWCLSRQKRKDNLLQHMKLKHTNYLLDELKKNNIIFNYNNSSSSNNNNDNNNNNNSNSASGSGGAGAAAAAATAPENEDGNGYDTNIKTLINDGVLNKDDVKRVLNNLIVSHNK
# test.details: PBM E-score (8-mer binding enrichment) (E-score (-0.5 to 0.5)); higher = stronger / more preferred TF binding
# cond: protein concentration: 200 nM; construct: GST-full length
In all, about 33,000 sequences were measured (“E-score (-0.5 to 0.5)”: median about -0.035, highest 2% from about 0.34 on). The full list was thinned out, with the highest values kept by preference.
What PBM E-score was measured for each of the following?

Report PBM E-score for every entry below.
1. AACTTGCC
2. AATACGCT
3. ACTTTGCT
4. ACACGTGT

output:
[0.204, 0.188, -0.0166, 0.363]

List the reported PBM E-score of each sequence below.
1. CGCGGAAG
2. AGGACACG
3. ACACGTGG
4. TATTAACA
5. AAACGTGG

output:
1: -0.172; 2: 0.071; 3: 0.236; 4: 0.359; 5: -0.0479

For each entry beneath this line, provide reported PBM E-score.
1. ATTACGCG
2. AGCAGGTC
3. TCAAGTCA
4. CATACGCG
5. ATTACGCC

output:
[0.377, -0.0131, 0.0447, 0.155, 0.102]

List reported PBM E-score for each of these sequences:
1. AGCACCGG
2. AATACGCG
3. ATCAGATC
4. CTGGCCCA
5. ATGAGAAC
6. ATTACGGG
7. CTTACGCA
8. ACACGTGA

output:
1: -0.32; 2: 0.354; 3: -0.196; 4: -0.265; 5: 0.00278; 6: -0.00149; 7: 0.301; 8: 0.273

###

# study.target: Mot3 (UniProt P54785)
# Sequence: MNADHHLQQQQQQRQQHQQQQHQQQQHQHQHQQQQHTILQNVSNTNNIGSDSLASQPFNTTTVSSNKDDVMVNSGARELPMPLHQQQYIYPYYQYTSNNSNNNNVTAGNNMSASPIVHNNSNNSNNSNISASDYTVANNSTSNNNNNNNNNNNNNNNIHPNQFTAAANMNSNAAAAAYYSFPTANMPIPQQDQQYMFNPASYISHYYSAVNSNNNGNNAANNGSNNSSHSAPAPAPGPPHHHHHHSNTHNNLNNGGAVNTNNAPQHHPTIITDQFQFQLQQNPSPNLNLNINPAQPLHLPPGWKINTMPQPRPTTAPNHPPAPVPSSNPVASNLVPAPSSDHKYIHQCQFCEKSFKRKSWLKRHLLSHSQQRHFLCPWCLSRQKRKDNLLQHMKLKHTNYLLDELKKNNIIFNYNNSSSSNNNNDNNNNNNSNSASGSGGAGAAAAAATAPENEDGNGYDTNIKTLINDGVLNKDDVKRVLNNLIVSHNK
# test.details: PBM E-score (8-mer binding enrichment) (E-score (-0.5 to 0.5)); higher = stronger / more preferred TF binding
# cond: protein concentration: 200 nM; construct: GST-full length
The full ranking holds about 33,000 sequences; the median of “E-score (-0.5 to 0.5)” is about -0.035, and the highest 2% start at about 0.34. Shown is part of a subset that was picked to be rich in the highest values.
Label Not satisfied if PBM E-score falls below -0.1; label Satisfied in every other case.

input: Reported PBM E-score reaches at least -0.1 for AGGAGTGC ?
output: Not satisfied

input: Next sequence up: GGGGTAGA
output: Satisfied

input: Please give the result for AAGCAACG too.
output: Satisfied

input: Record: GAGAGGCA
output: Satisfied

input: Thanks! And CTGTGGCC ?
output: Satisfied

Further cases:
input: API: above_or_equal(metric=PBM E-score, cutoff=-0.1) for item ATGGAAGC
output: Not satisfied

input: What would you report for AAACAAGC ?
output: Satisfied

input: Moving on to CGGCAACA
output: Satisfied

input: Same for AGGCAACC
output: Satisfied

input: Then this sequence: CGCTCCTC
output: Not satisfied

input: Repeat with TGGCAACA
output: Satisfied

input: And for CCAACTCC ?
output: Not satisfied

input: Next sequence: CGGCAACC
output: Satisfied

input: Same question, ACGCAACT this time
output: Satisfied

input: TTGCCCAA ?
output: Satisfied

input: Check GGGCAACC too.
output: Not satisfied

input: // same read-out, input: GGACACCA
output: Not satisfied

input: Subsequent entry: AGGCCTCA
output: Not satisfied

input: Also check AAGCAACT
output: Satisfied

input: And what about the sequence ACAACTAG ?
output: Satisfied

input: Now this one: CGGCAACG
output: Satisfied
